Reported growth inhibition is given for each of the following compounds.
# PROTOCOL: NCI Yeast Anticancer Drug Screen. Data for the mlh1 strain (AID 171);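 also: 0% = growth of vehicle-treated control cultures of the same strain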
# MEASUREMENT_CONDITIONS: S. cerevisiae mlh1 strain growth inhibition; at 33.0 µM; active compounds read high
# Experimental: Growth inhibition of yeast strains with defined genetic alterations is measured as a screen for potential anti-cancer activity. Selected strains with alterations in DNA damage repair or cell cycle control were exposed to compounds and growth inhibition was measured relative to vehicle treated controls. The strain used in this assay is mlh1
The panel holds about 79,000 compounds, 15% with a hit somewhere; the sample as a whole holds those more often.
Number only, in %; omit the unit.

Q) Give the reported growth inhibition for this compound. Cc1cc(C)c(NC(=S)NC(=O)c2ccccc2)cc1C
A) 34

Q) Report growth inhibition, nothing else, for this compound: CN(C)[C@@H]1C(=O)C(C(N)=O)=C(O)[C@@]2(O)C(=O)C3=C(O)c4c(O)cccc4C[C@H]3C[C@@H]12
A) 97

Q) Provide measured growth inhibition value, entry: O=C(C[n+]1ccc2ccccc2c1)c1ccc2ccccc2c1
A) -22

Q) Read off the recorded growth inhibition for CC(C)=NOC(=O)Nc1ccc(Cl)cc1
A) 21

Q) Fill in growth inhibition for record CC1CC(C)(C)CC(OCCN2CCCCC2)(c2ccccc2)C1 (stereo unspecified)
A) 15

Q) Provide growth inhibition value for the following compound: Cc1sc2ccc3ccccc3c2[n+]1C
A) -41

Q) Give me measured growth inhibition, please, for this compound: CNCCCNc1c2ccccc2nc2cccc([N+](=O)[O-])c12
A) 94

Q) Provide only the value of recorded growth inhibition for Cc1cccc[n+]1C1CCc2c(ccc3ccccc23)C1=O (stereo unspecified)
A) 10

Q) Note down growth inhibition recorded for COC1CCC(O)C(/C=C/[N+](=O)[O-])C1 (stereo unspecified)
A) 99

Q) Give reported growth inhibition value for Cc1c2cccc(Sc3ccccc3)c2c2c3c(cccc13)[S+](c1ccccc1)C2 (stereo unspecified)
A) 96

Q) Consider the compound Cc1cccc(/C=N/NC(=S)N2CCCC2)n1 . State its measured growth inhibition.
A) 95
